system: ex vivo calcium ionophore-stimulated LTB4 production in whole blood; assay: Murine arachidonic acid-induced inflammation model: ex vivo stimulated LTB4 production in blood; set-up: species or system Balb/c mice; conditions: Mus musculus; 30 mg/kg oral gavage; blood diluted 1:1, A23187 stimulated ex vivo; percent inhibition of LTB4 production; read-out: % Inh. LTB4
Structures can show the parent of a compound that is named as a salt.
Threshold check on inhibition at 30 mg/kg: at or above 80% gives Met, strictly below gives Not met.

Record excerpt, results attached:
compound: NC(=O)N[C@H]1C[C@H]2CC[C@@H](C1)N2Cc1cc2cc(Oc3nc4ncccc4s3)ccc2o1
labelValue: Not met
--
compound: CC(=O)N1C[C@@H]2C[C@H]1CN2C(=O)c1coc2cc(Oc3nc4ncccc4s3)ccc12
labelValue: Not met
--
compound: O=C(O)C1CCN(Cc2coc3cc(Oc4nc5ccccc5s4)ccc23)CC1 [Example 248, formate]
labelValue: Met

Reported inhibition at 30 mg/kg reaches at least 80% for O=C1CCCN1C1CCN(Cc2cc3cc(Oc4nc5ncccc5s4)ccc3o2)CC1 ?
Not met

Reported inhibition at 30 mg/kg reaches at least 80% for C[C@H]1COCCN1Cc1c[nH]c2cc(Oc3nc4ncccc4s3)ccc12 ?
Not met

Reported inhibition at 30 mg/kg reaches at least 80% for CC(=O)NC1CCN(Cc2coc3cc(Oc4nc5ncccc5s4)ccc23)CC1 [Example 197, formate] ?
Met

Reported inhibition at 30 mg/kg reaches at least 80% for CNC(=O)C1CCN(Cc2coc3cc(Oc4nc5ncccc5s4)ccc23)CC1 ?
Met

Reported inhibition at 30 mg/kg reaches at least 80% for CC(=O)N(C)C1CCN(Cc2coc3cc(Oc4nc5ncccc5s4)ccc23)C1 (stereo not shown) ?
Not met

Reported inhibition at 30 mg/kg reaches at least 80% for CC(=O)N1C[C@@H]2CC[C@H]1CN2Cc1cc2cc(Oc3nc4ncccc4s3)ccc2o1 ?
Met

Reported inhibition at 30 mg/kg reaches at least 80% for NC(=O)C1CCCN(Cc2coc3cc(Oc4nc5ncccc5s4)ccc23)C1 (stereo in doubt) ?
Met

Reported inhibition at 30 mg/kg reaches at least 80% for CC(=O)N1C[C@H]2C[C@@H]1CN2Cc1cc2ccc(Oc3nc4ncccc4s3)cc2o1 ?
Not met

Reported inhibition at 30 mg/kg reaches at least 80% for CN(C)Cc1cc2cc(Oc3nc4ncccc4s3)ccc2o1 ?
Not met

Reported inhibition at 30 mg/kg reaches at least 80% for CS(=O)(=O)C1CCN(Cc2coc3cc(Oc4nc5ncccc5s4)ccc23)CC1 ?
Met

Reported inhibition at 30 mg/kg reaches at least 80% for CN(Cc1ccncc1)Cc1coc2cc(Oc3nc4ncccc4s3)ccc12 ?
Not met

Reported inhibition at 30 mg/kg reaches at least 80% for NC(=O)N1CCN(Cc2coc3cc(Oc4nc5ncccc5s4)ccc23)CC1 ?
Not met
